I'd be grateful if you could share measured melting point for these entries.

The compound CCC1c2cccn2-c2cc(F)c(F)cc2N1S(=O)(=O)c1ccc(O)cc1 (configuration not stated) showed melting point equal to 177 to 179 °C

The compound C[Si](C)(C)C1(COC(=O)Nc2ccccc2)c2ccccc2-c2ccccc21 showed melting point equal to 94 to 96 °C

The compound CCOC(=O)c1cc(-c2ccccc2)nn1Cc1ccc(Cl)cc1Cl showed melting point equal to 104 to 107 °C

The compound NNC(=O)c1ccc2occ(-c3cccc(OC(F)(F)F)c3)c2c1 showed melting point equal to 137 to 138 °C

The compound Cc1ccc(NCC2CCN(C(C)C)CC2)c(C(=O)Nc2ccc(Cl)cn2)c1 showed melting point equal to 172 to 174 °C

The compound Cc1ccc2c(=O)n3ccsc3nc2c1 showed melting point equal to 174 to 178 °C

The compound O=C(O)c1cccc(-c2ncn(-c3ccc(N4CCCC4=O)cc3)n2)c1 showed melting point equal to 270 to 273 °C

The compound C=CC[C@H](C(N)=O)[C@@H](CC(C)C)C(=O)NC1N=C(N2CCCCC2)c2ccccc2N(C)C1=O (some centres not stated) showed melting point equal to 231 to 238 °C

The compound N#CCC(CC#N)c1cccnc1 showed melting point equal to 60 to 61 °C

The compound CN1CCC(C2(O)c3cc(F)ccc3CCc3cccnc32)CC1 (configuration not stated) showed melting point equal to 126 to 127 °C

The compound CCc1c(COC(C)=O)nc(-c2ccc(OC)c(OC)c2)c2cc(OC)c(OC)cc12 showed melting point equal to 129 to 131 °C

The compound CC1=C(n2ccccc2=O)c2cc([N+](=O)[O-])ccc2OC1(C)C showed melting point equal to 200 °C

====

metric: melting point

The compound Cc1nc(C(=O)O)co1 showed melting point equal to > 250 °C

The compound COc1cc2c(c(OC)c1/C=C/c1ccc(C=O)cc1)C(C)(C)CCC2(C)C showed melting point equal to 108 °C

The compound O=C1NC(=O)C2(N1)C(=O)N(Cc1ccc(Br)cc1F)c1c(Cl)cccc12 (stereo not drawn) showed melting point equal to 240 to 241 °C

====

metric: melting point

The compound OC(CCc1ccccc1)(c1ccccc1)c1cncn1Cc1ccccc1 (stereo not given) showed melting point equal to 196 to 198 °C

The compound COCc1oc(-c2nn(Cc3ccccc3F)c3ccccc23)nc1C showed melting point equal to 86 to 88 °C

The compound CC(C)=CC(=O)Nc1ccccc1CCN1CCN(c2nsc3ccccc23)CC1 showed melting point equal to 52 °C

The compound O=C(NC(=O)c1c(Cl)cccc1Cl)Nc1ccc(F)c(C(F)(F)F)c1Cl showed melting point equal to 227 to 230 °C

The compound Nc1c(-c2ccc(-c3ccccc3F)cc2)nc2ccc(F)cc2c1C(=O)O showed melting point equal to 248 to 250 °C

====

I'd be grateful if you could share measured melting point for these entries.

The compound [N-]=[N+]=NCn1cc(Cl)c(-c2cc(Cl)cc(Cl)c2)n1 showed melting point equal to 74 °C

The compound Clc1ccc(C#Cc2ccc(-c3ccccc3)s2)cc1 showed melting point equal to 141 to 145 °C

The compound O=C1Nc2cc(-c3ccc(C(F)(F)F)cc3)ccc2C1c1cc(Cl)ccc1O (stereo unspecified) showed melting point equal to 221 to 225 °C

The compound O=C1NCCc2c(-c3cccs3)[nH]c3cccc1c23 showed melting point equal to 220 to 222 °C

The compound CN1Sc2sccc2C=C1CN1CCOCC1 showed melting point equal to 104 to 106 °C

The compound O=CNC[C@H](O)C(=O)OC=O showed melting point equal to 140 to 142 °C

The compound N#Cc1c(N2CCCCC2)cc(-c2ccc(-n3cccc3)cc2)c2c1Cc1ccccc1-2 showed melting point equal to 224 to 226 °C

The compound Cc1c(N)cc(C(C)(C)C)c2c1CC(C)(C)O2 showed melting point equal to 115 to 116 °C

The compound O=C1Cc2ccc(Cl)cc2C(c2ccccc2)C1 (stereo unspecified) showed melting point equal to 61 to 62 °C

The compound Cc1cccc(Cl)c1NC(=O)NCc1ccc2c(c1)CN(C1CCC(=O)NC1=O)C2=O (stereo unspecified) showed melting point equal to 243 to 245 °C

The compound O=C(O)c1cccc(-c2cccn3c(=O)n(Cc4cccc(C(F)(F)F)c4)nc23)c1 showed melting point equal to 218 to 222 °C

The compound CCOC(=O)Cc1nn(Cc2nc(-c3ccccc3C(F)(F)F)no2)c(=O)c2ccccc12 showed melting point equal to 111 to 115 °C

The compound CC(C)(C#N)c1cc(C=Cc2ccc(OS(N)(=O)=O)cc2)cc(Cn2cncn2)c1 showed melting point equal to 151 to 152 °C

The compound CNC(=O)c1cc(N2CCCC2)cc(C)c1C(N)=O showed melting point equal to 160 °C

The compound O=C=Nc1c(Cl)c(Cl)c(Cl)c(Cl)c1Cl showed melting point equal to 100 to 102 °C

The compound CC(C)(OCc1cc2nc(Cl)ccc2n1S(=O)(=O)c1cccc2ccccc12)C(=O)O showed melting point equal to 209 °C

The compound CN(C)c1ccc(-c2cc(=O)c(C(=O)O)cn2-c2ccc(O)c(O)c2)cc1 showed melting point equal to 223 to 227 °C

The compound CCc1ccc2c(=O)c(CSC)cn(C)c2c1 showed melting point equal to 104 to 106 °C

The compound CC(C)(C)c1ccc(CC2OCCN(Cc3ccccc3)C2=O)cc1 (stereo unspecified) showed melting point equal to 190 to 193 °C

The compound Cc1nc2ccccn2c(=O)c1CCN1CCC(c2noc3cc(F)ccc23)CC1 showed melting point equal to 170 °C

The compound CCCCOP(=O)(CCCCC1(C(=O)NCC(F)(F)F)c2ccccc2-c2ccccc21)OCCCC showed melting point equal to 71 to 74 °C

The compound CC(=O)N1CCc2cc(S(=O)(=O)C[N+](=O)[O-])ccc21 showed melting point equal to 210 °C

The compound COc1ccc(C(C)(C)c2cc(C(C)(C)C)cc(-n3nc4ccc(C(F)(F)F)cc4n3)c2O)cc1 showed melting point equal to 140 °C

The compound CC12CCC(O)CC1=CCC1C2CCC2(C)C1CCC2n1ccnc1 (stereo unspecified) showed melting point equal to 255 to 258 °C

The compound CCOC(=O)c1cn(-c2ccc(F)c(NC(C)(C)C)n2)c2c(Br)c(F)c(F)cc2c1=O showed melting point equal to 192 to 195 °C

The compound Cn1c(CCOc2ccc(CC3SC(=O)NC3=O)cc2)nc2cccnc21 (stereo unspecified) showed melting point equal to 96 to 100 °C

====

I'd be grateful if you could share measured melting point for these entries.

The compound C1=C(c2cccnc2)CCC(N2CCN(c3ccccn3)CC2)C1 (stereo unspecified) showed melting point equal to 146 to 148 °C

The compound CCCc1nc2c(N)nc3cc(OCCCNC(=O)C(C)C)ccc3c2n1CC(C)C showed melting point equal to 179 to 181 °C

The compound CC(=O)Nc1nc2ccccc2c2c(CC(C)C)n(C)nc12 showed melting point equal to 130 to 131 °C

The compound Cn1c(C(F)(F)F)n[nH]c1=O showed melting point equal to 64 °C

The compound CCC1Nc2cc(C)cc(C)c2N1c1ccc(CCNC(=O)NS(=O)(=O)c2ccc(C)cc2)cc1 (stereo unspecified) showed melting point equal to 108 to 112 °C

The compound CC12CCC(C(=O)CC1=O)C2(C)C (stereo unspecified) showed melting point equal to 220 °C

====

metric: melting point

The compound COc1ccc2c(cc3n2CCCO3)n1 showed melting point equal to 92 to 93 °C

The compound O=CCC(F)(F)CN1C(=O)c2ccccc2C1=O showed melting point equal to 76 to 78 °C

The compound O=C(O)C(=O)c1cc2ccccc2s1 showed melting point equal to 176 °C

The compound CN(C)c1nn(C(=O)Cl)c(=O)n1C showed melting point equal to 78 to 80 °C

The compound Nc1cc2c(cc1[N+](=O)[O-])OCO2 showed melting point equal to 199 to 201 °C

The compound Cc1noc(NS(=O)(=O)c2ccccc2-c2ccc(-c3ncco3)cc2CN2CCc3ccccc3C2=O)c1C showed melting point equal to 127 to 135 °C

The compound O=C(OC(c1ccccc1)c1ccccc1)C1=C(Sc2ccccc2)CC2CC(=O)C12 (configuration not stated) showed melting point equal to 148 to 150 °C

The compound CNC(=O)c1ccc(Nc2nc(Nc3cc4c(cc3OC)CCN(C(COC)COC)CC4)ncc2Cl)c(OC)c1 showed melting point equal to 85 to 97 °C

The compound Nc1nc2c(s1)CCN(CC=Cc1ccoc1)CC2 showed melting point equal to 130 to 136 °C

The compound CC(C)(C)OC(=O)NCC1CN(c2cccc(Cl)n2)C1 showed melting point equal to 124 to 126 °C

The compound CC1(C)Cc2ccc(C#N)cc2N(C(=O)NCc2ccccc2)C1 showed melting point equal to 162 to 163 °C

The compound CCC(CC)N1C(=O)CCc2c1cc(C)nc2Nc1c(C)cc(C)cc1C showed melting point equal to 44 to 46 °C
